- tested system: GLP-1 receptor (GLP-1R), primary cAMP assay (human, UniProt P43220 24-463)
- protocol details: cell-based or functional assay
Starred links: 1 amine or outer side, 2 acyl side, 3 side chain; linkers in the order of their positions; H or OH if unused. Non-standard residues stand in square brackets, D forms with d. Groups on a side chain read outwards from the residue. Primed or numbered codes have the meaning given here. No end group written: not given here. *: point of attachment. γGlu = O=C(O)[C@H](CCC(=O)[*:2])N[*:1]; Stearoyl = CCCCCCCCCCCCCCCCCC(=O)*; Palmitoyl = CCCCCCCCCCCCCCCC(=O)*; αMeF = C[C@](N)(Cc1ccccc1)C(=O)O; αMeK = C[C@](N)(CCCCN)C(=O)O; Lauroyl = CCCCCCCCCCCC(=O)*; αMeS = C[C@](N)(CO)C(=O)O; PEG2′ = not defined here; Aib = CC(C)(N)C(=O)O
Values of Primary assay EC50 (cAMP), n1 strictly less than 0.2 nM map to 1, and values of at least 0.2 nM map to -1.

# count of solved cases: 9
# binder, assigned category
measured = [
    ("H[Aib]EGS[αMeF]TSDV[αMeS]SK([PEG2′-PEG2′-γGlu-Stearoyl])LEGEAA[αMeK]E[αMeF]IAK([PEG2′-PEG2′-γGlu-Stearoyl])VVEGG-NH2 [SEQ ID NO: 410]", -1),
    ("H[Aib]EGS[αMeF]TSDV[αMeS]SK([PEG2′-PEG2′-γGlu-Palmitoyl])LEGEAA[αMeK]EFIAWK([PEG2′-PEG2′-γGlu-Palmitoyl])VEGG-NH2 [SEQ ID NO: 267]", -1),
    ("H[Aib]EGS[αMeF]TSDV[αMeS]SYK([PEG2′-PEG2′-γGlu-Palmitoyl])EGEAA[αMeK]EFIK([PEG2′-PEG2′-γGlu-Palmitoyl])WVVEGG-NH2 [SEQ ID NO: 271]", -1),
    ("H[Aib]EGS[αMeF]TSDV[αMeS]SK([PEG2′-PEG2′-γGlu-Lauroyl])LEGEAA[αMeK]E[αMeF]IAK([PEG2′-PEG2′-γGlu-Lauroyl])VVEGG-NH2 [SEQ ID NO: 405]", 1),
    ("H[Aib]EGTFTSDVSK([PEG2′-PEG2′-γGlu-Palmitoyl])YLEGEAAEEFIK([PEG2′-PEG2′-γGlu-Palmitoyl])WVVEGG-NH2 [SEQ ID NO: 242]", -1),
    ("H[Aib]EGS[αMeF]TSDVSK([PEG2′-PEG2′-γGlu-Lauroyl])YLEGEAA[αMeK]EFIAWK([PEG2′-PEG2′-γGlu-Lauroyl])VEGG-NH2 [SEQ ID NO: 253]", 1),
    ("H[Aib]EGS[αMeF]TSDVSK([PEG2′-PEG2′-γGlu-Palmitoyl])YLEGEAA[αMeK]EFIK([PEG2′-PEG2′-γGlu-Palmitoyl])WVVEGG-NH2 [SEQ ID NO: 251]", 1),
    ("H[Aib]EGS[αMeF]TSDVSK([PEG2′-PEG2′-γGlu-Palmitoyl])YLEGEAA[αMeK]EFIAK([PEG2′-PEG2′-γGlu-Palmitoyl])VVEGG-NH2 [SEQ ID NO: 254]", -1),
    ("H[Aib]EGS[αMeF]TSDVSK([PEG2′-PEG2′-γGlu-Lauroyl])YLEGEAA[αMeK]EFIK([PEG2′-PEG2′-γGlu-Lauroyl])WVVEGG-NH2 [SEQ ID NO: 249]", 1),
]

Would you kindly look at the next entry?
Bench note: check whether H[Aib]EGS[αMeF]TSDK([PEG2′-PEG2′-γGlu-Lauroyl])SSYLEGEAA[αMeK]EFIK([PEG2′-PEG2′-γGlu-Lauroyl])WVVEGG-NH2 [SEQ ID NO: 256] shows Primary assay EC50 (cAMP), n1 below 0.2 nM 1
